# Tested on: 323965-272-R-J2-PDC complex spheroid viability;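 further: spheroids exposed to agents for seven days before readout; percent of DMSO vehicle control wells so 100% = untreated growth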
# protocol description: Anticancer human tumor 323965-272-R-J2-PDC patient-derived pancreatic carcinoma cell line growth inhibition [CLK]
# study conditions: second compound 0.1 µM; first compound 0.316 µM; hits give low values
For each record, check the reported viability, T/C: if it is below 70% write 1.0, else write 0.0.

- Nc1ccn(C2OC(CO)C(O)C2(F)F)c(=O)n1 (stereo unspecified) + CN1CCN(c2cc(C(=O)Nc3cc4cc(-c5cnn(C)c5)ccc4cn3)ccn2)CC1: 1.0
- O=c1[nH]cc(F)c(=O)[nH]1 + CNC(=O)c1ccc(Nc2nc(OC3CCCC3)c3c(-c4ccc5nc(C)oc5c4)c[nH]c3n2)c(OC)c1: 0.0
- CC(Nc1ccc2c(c1)OCCn1cc(N3C(=O)OCC3C(F)F)nc1-2)C(N)=O (stereo unspecified) + CNC(=O)c1ccc(Nc2nc(OC3CCCC3)c3c(-c4ccc5nc(C)oc5c4)c[nH]c3n2)c(OC)c1: 0.0
- CCc1c2c(nc3ccc(O)cc13)-c1cc3c(c(=O)n1C2)COC(=O)[C@]3(O)CC + CN1CCN(c2cc(C(=O)Nc3cc4cc(-c5cnn(C)c5)ccc4cn3)ccn2)CC1: 1.0
- CC1COCCN1c1cc(C2(S(C)(=N)=O)CC2)nc(-c2ccnc3[nH]ccc23)n1 (stereo unspecified) + CN1CCN(c2cc(C(=O)Nc3cc4cc(-c5cnn(C)c5)ccc4cn3)ccn2)CC1: 1.0
- O=C(c1cc(Cc2n[nH]c(=O)c3ccccc23)ccc1F)N1CCN(C(=O)C2CC2)CC1 + CNC(=O)c1ccc(Nc2nc(OC3CCCC3)c3c(-c4ccc5nc(C)oc5c4)c[nH]c3n2)c(OC)c1: 0.0
